# SYSTEM NAME: CYP3A4 (CYP3A) (Homo sapiens, UniProt P08684);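 note: inhibition of CYP3A-mediated 1-hydroxymidazolam formation after 10 min incubation with NADPH, quantified by HPLC MS relative to metabolite produced without test compound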
# Sequence (P08684 2-503): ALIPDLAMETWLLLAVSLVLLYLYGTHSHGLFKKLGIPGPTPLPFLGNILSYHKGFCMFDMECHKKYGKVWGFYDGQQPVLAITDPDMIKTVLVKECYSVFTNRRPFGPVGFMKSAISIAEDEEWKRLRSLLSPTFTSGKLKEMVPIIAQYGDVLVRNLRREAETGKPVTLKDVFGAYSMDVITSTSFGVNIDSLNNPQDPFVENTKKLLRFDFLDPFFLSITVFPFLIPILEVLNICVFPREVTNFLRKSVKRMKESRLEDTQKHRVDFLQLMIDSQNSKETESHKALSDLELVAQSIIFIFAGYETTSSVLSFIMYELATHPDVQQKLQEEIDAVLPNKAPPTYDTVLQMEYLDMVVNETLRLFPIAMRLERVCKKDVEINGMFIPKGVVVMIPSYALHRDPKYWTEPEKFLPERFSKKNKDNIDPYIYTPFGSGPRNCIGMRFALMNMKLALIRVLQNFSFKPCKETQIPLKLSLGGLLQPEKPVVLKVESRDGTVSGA
# MEASUREMENT DESCRIPTION: in vitro
# DETAILS: microsomes, pH 7.4
// reported IC50 for each item listed
Could you give me the number in nM? Just the number is fine.

Find the recorded IC50 belonging to CO[C@H](C)C(=O)N[C@@H](Cc1ccc(F)c(-c2nccs2)c1)[C@H](O)CN[C@H]1CC2(CCC2)Oc2ncc(CC(C)(C)F)cc21 and report it.
300

More entries:
Query (molecule): COC(OC)C(=O)N[C@@H](Cc1cccc(F)c1)[C@H](O)CN[C@H]1CC2(CCC2)Oc2ncc(CC(C)(F)F)cc21 ; field requested: IC50
1400

Look up IC50: CC(=O)N[C@@H](Cc1cc2c(c(-c3ccncc3)c1)OCO2)[C@H](O)CN[C@H]1CC2(CCC2)Oc2ncc(CC(C)(C)C)cc21
100

Please look up its IC50: CC(C)(C)Cc1cnc2c(c1)[C@@H](NC[C@@H](O)[C@H](Cc1ccc3c(c1)OCO3)NC(=O)[C@H]1CCO1)CC1(CCC1)O2
100
